target-system: human receptor tyrosine kinase like orphan receptor 1 (ROR1) (human, UniProt Q01973 30-937)
Sequence (Q01973 30-937): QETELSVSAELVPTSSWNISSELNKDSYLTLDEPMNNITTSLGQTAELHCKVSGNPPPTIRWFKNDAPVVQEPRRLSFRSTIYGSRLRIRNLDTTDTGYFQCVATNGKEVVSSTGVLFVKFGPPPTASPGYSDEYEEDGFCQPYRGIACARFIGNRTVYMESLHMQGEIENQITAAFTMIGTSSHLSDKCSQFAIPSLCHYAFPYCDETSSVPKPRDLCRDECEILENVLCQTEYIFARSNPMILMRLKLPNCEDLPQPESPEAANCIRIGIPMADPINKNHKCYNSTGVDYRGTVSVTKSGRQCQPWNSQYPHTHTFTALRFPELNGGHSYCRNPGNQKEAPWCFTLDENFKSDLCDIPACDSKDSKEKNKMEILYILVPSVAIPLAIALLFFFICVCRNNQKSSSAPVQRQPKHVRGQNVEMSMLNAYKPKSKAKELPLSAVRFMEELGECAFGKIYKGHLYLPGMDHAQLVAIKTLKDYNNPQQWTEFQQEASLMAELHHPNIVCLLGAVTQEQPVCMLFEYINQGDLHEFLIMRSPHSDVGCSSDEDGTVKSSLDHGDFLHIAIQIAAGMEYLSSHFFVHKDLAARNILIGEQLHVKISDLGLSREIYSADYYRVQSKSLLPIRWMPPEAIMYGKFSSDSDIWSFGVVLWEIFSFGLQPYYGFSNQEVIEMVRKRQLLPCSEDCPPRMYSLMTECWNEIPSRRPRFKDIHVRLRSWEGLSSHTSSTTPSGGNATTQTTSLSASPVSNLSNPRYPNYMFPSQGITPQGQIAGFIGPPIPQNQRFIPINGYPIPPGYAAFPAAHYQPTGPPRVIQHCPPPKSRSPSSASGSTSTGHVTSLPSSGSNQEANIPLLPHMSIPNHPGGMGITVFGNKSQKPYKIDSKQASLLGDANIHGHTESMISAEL
assay-method-text: cell-based or functional assay
parameter-measured: IC50, cell viability (CellTiter-Glo, 72 h), TOV112D cells (nM)
# value in nM; strip the unit string

The examples below pair each entry with its known result.
INSERT INTO measurements (binder, unit, measured_number) VALUES
  ('ADC-A (antibody, human IgG1, kappa, V domains shown, MC-VC-PAB-MMAE bonded via cysteine residues of the antibody (chain and positions not stated); MC-VC-PAB-MMAE bonded via cysteine residues of the antibody (chain and positions not stated); DAR 3.89 to 5.09, Antibody-drug conjugate of Ab1; also called Ab1-MC-VC-PAB-MMAE) VH: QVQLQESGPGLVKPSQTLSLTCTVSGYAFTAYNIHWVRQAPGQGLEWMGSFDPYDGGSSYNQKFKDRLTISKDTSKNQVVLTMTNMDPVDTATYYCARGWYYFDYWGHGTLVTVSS VL: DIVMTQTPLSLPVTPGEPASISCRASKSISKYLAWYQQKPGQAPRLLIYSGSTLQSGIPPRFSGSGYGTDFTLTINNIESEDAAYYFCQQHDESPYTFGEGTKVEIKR', 'nM', 62.4),
  ('ADC-E (antibody, human IgG1, kappa, V domains shown, SC-VC-PAB-MMAE bonded via lysine residues of the antibody (chain and positions not stated)) VH: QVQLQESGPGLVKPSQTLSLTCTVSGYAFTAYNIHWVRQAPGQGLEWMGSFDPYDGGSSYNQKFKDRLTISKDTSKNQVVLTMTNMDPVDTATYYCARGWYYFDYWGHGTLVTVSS VL: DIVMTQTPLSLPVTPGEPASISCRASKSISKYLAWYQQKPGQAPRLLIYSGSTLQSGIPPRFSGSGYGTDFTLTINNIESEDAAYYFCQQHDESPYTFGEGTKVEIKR', 'nM', 57.8);

Okay, next one:
Sample ADC-B (antibody, human IgG1, kappa, V domains shown, SMCC-DM1 bonded via lysine residues of the antibody (chain and positions not stated); SMCC-DM1 bonded via lysine residues of the antibody (chain and positions not stated); DAR 3.0 to 3.20) VH: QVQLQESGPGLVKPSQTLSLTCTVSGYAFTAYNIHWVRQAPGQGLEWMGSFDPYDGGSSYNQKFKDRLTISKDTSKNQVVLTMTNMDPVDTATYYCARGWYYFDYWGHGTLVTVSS VL: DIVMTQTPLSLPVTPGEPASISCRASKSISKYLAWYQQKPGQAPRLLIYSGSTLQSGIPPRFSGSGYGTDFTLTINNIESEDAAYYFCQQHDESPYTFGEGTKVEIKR — what was its IC50, cell viability (CellTiter-Glo, 72 h), TOV112D cells?
34.2
